Cited source: patent US9732075B2

molecular target: human orexin-1 receptor (Homo sapiens (Human), UniProt O43613); assay: In vitro assay: intracellular calcium measurements (FLIPR), antagonistic activity; conditions: CHO cells expressing human orexin-1 receptor, orexin-A agonist, geometric mean, read-out: IC50 Ox1
Sequence (O43613 whole entry): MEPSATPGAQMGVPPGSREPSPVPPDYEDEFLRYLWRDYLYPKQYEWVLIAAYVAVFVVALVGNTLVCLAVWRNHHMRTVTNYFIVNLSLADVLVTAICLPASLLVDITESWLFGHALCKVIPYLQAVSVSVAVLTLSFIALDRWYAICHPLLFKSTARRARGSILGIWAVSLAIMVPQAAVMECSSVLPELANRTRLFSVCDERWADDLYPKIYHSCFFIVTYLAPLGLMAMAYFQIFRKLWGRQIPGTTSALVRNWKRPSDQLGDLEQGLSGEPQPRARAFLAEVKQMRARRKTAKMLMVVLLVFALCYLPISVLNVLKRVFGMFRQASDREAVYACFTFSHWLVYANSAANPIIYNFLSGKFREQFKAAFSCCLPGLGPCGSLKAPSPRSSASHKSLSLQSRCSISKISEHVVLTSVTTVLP
Endpoint Name: pIC50
Give only the number. pIC50 is defined as minus log10 of concentration in molar units.

What pIC50 value was documented for this compound, `C=C1C[C@@H](c2nc3cc(OC)ccc3[nH]2)N(C(=O)c2nc(N3CCCC3)sc2-c2cccc(F)c2)C1` ?
7.16

Consider the compound shown here: `Cc1cc2[nH]c([C@@H]3[C@@H](C)CCN3C(=O)c3cc(C#N)ccc3-c3ccccc3)nc2cc1Cl` What is its recorded pIC50?
8.15

What measured pIC50 goes with `C=C1C[C@@H](c2nc3cc(Cl)c(C(F)(F)F)cc3[nH]2)N(C(=O)c2ccccc2-n2cccn2)C1` ?
6.94

// lookup pIC50 for `Cc1c(Cl)ccc2[nH]c([C@]3(C)CCCN3C(=O)c3cc(F)ccc3-n3nccn3)nc12`
8.30

Fill in the blank: the reported pIC50 of Cc1nc(C(=O)N2CCCC2c2nc3c(C(F)(F)F)cccc3[nH]2)c(-c2ccccc2)s1 (stereo not drawn) is ____.
7.03

Given the entry C=C1CN(C(=O)c2cc(OC)ccc2-n2nccn2)C(C)(c2nc3cc(OC)ccc3[nH]2)C1 (stereo not drawn) , report its measured pIC50.
7.24
